Reported growth inhibition is given for each of the following compounds.
Experiment: inhibition of 3D7 malaria parasite growth – strain 3D7 (AID 2306);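 also: 0% = DMSO wells and 100% = chloroquine plus artemisinin control wells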
Details: P. falciparum 3D7 erythrocytic growth, LDH absorbance, 72 h; at 2 µM; active compounds read high
Give your result in % as a bare value.

Consider the following illustrative entries.
Lab note: measured growth inhibition of C=CC(=O)Nc1ccc(Cl)cc1C(O)c1ccccc1 (stereo not given) was 100

Lab note: measured growth inhibition of CCc1ccc(CN2CCC(CNC(=O)c3cc(-c4ccccc4F)cs3)C2)cc1 (stereo not given) was 100

Lab note: measured growth inhibition of "COc1cccc(CNC[C@@H](O)[C@H](Cc2ccccc2)NC(=O)c2cc3c4c(c2)c(C(C)C)cn4CCS(=O)(=O)N3C)c1" was 98

Lab note: measured growth inhibition of COc1cccc(CN2CCCC(OC(c3ccccc3)c3ccccc3)C2)c1O (stereo not given) was 90

More entries:
Lab note: measured growth inhibition of O=C(CCn1cncn1)N1CCCC(c2[nH]c3ccccc3c2-c2ccncc2)C1 (stereo not given) was 97

Lab note: measured growth inhibition of "COc1cc2nc(N3CCC(CNC(=O)c4ccc(-c5ccc(C(=O)N(C)C)cc5)cc4)CC3)nc(N)c2cc1OC" was 101

Lab note: measured growth inhibition of "N/C(=N/C(=NCCCCCCN=C(/N=C(/N)Nc1ccc(Cl)cc1)N1CCCCC1)N1CCCCC1)Nc1ccc(Cl)cc1" was 100
